# pIC50 per record follows
- Target of assay: Recombinant human BACE1 (Homo sapiens)
- Construct: purchased R&D Systems
- Assay info: Assay of BACE1 inhibitory activity: 384-well
- Format: biochemical
- Setup conditions: Assay format 384-well
pIC50: −log10 of the molar value.

| Molecule | pIC50 |
| --- | --- |
| C[C@H]1SC(N)=N[C@](C)(c2cc(NC(=O)c3ncc(C#N)cc3Cl)ccc2F)[C@H]1F [Compound I-64] | 8.15 |
| CC#CCOc1cnc(C(=O)Nc2ccc(F)c([C@@]3(C)N=C(N)O[C@H](C(C)(F)F)[C@@H]3F)c2)cn1 [Compound I-76] | 8.42 |
| C[C@H]1SC(N)=N[C@](C)(c2cc(NC(=O)c3cnc(OC(F)F)cn3)ccc2F)[C@H]1F [Compound I-47] | 8.32 |
| C[C@H]1SC(N)=N[C@](C)(c2cccc(NC(=O)c3cnc(C(F)F)cn3)c2)[C@H]1F [Compound I-106] | 7.71 |

* * *

- Target of assay: Recombinant human BACE1 (Homo sapiens, UniProt P56817)
- Construct: purchased R&D Systems
- Sequence (P56817 46-501): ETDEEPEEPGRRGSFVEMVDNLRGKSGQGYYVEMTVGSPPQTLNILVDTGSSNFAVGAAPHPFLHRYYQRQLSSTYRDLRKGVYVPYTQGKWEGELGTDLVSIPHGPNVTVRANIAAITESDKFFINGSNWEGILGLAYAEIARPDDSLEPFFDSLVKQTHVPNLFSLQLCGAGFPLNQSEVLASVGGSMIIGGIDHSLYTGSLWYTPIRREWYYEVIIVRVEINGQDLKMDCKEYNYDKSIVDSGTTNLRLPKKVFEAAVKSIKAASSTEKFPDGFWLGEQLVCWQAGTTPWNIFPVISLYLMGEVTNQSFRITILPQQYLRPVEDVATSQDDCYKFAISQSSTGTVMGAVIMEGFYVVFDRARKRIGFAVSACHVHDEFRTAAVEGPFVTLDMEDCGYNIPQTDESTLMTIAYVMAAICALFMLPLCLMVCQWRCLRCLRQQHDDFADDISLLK
- Assay info: Assay of BACE1 inhibitory activity: 384-well
- Format: biochemical
- Setup conditions: Assay format 384-well
For each record, check the reported IC50: if it is below 20 nM write Yes, else write No.

| Compound | Answer label |
| --- | --- |
| CC[C@H]1SC(N)=N[C@](C)(c2cc(NC(=O)c3ccc(OCF)cn3)ccc2F)[C@H]1F [Compound I-67] | Yes |
| COc1ccc(C(=O)Nc2ccc(F)c([C@@]3(C)N=C(N)SCC34CC(F)(F)C4)c2)nc1 [Compound I-57] | Yes |
| Cc1cc(C#N)cnc1C(=O)Nc1ccc(F)c([C@@]2(C)N=C(N)S[C@H](C)[C@@H]2F)c1 [Compound I-52] | Yes |
| COCC(F)(F)[C@H]1OC(N)=N[C@](C)(c2cc(NC(=O)c3cnc(OCF)cn3)ccc2F)[C@H]1F [Compound I-79] | Yes |
| CC[C@H]1SC(N)=N[C@](C)(c2cc(NC(=O)c3cnc(OCF)cn3)ccc2F)[C@H]1F [Compound I-66] | Yes |
| CO[C@H]1[C@@H](C)SC(N)=N[C@]1(C)c1cc(NC(=O)c2cnc(OCF)cn2)ccc1F [Compound I-87] | No |
| C[C@H]1SC(N)=N[C@](C)(c2cc(NC(=O)c3cnc(OCC(F)(F)F)cn3)ccc2F)[C@H]1F [Compound I-46] | No |
| C[C@H]1SC(N)=N[C@](C)(c2cc(NC(=O)c3ncc(C#N)cc3F)ccc2F)[C@H]1F [Compound I-110] | No |
| C[C@H]1SC(N)=N[C@](C)(c2cc(NC(=O)c3ccc(F)cn3)ccc2F)C12CC(F)(F)C2 [Compound I-63] | Yes |
| Cc1cc(C#N)cnc1C(=O)Nc1cccc([C@@]2(C)N=C(N)S[C@H](C)[C@@H]2F)c1 [Compound I-105] | No |
| COc1cnc(C(=O)Nc2ccc(F)c([C@@]3(C)N=C(N)O[C@H](C(F)(F)C4CC4)[C@@H]3F)c2)cn1 [Compound I-83] | No |
| C[C@]1(c2cc(NC(=O)c3cnc(OCF)cn3)ccc2F)N=C(N)O[C@H](C(F)(F)C2CC2)[C@@H]1F [Compound I-82] | No |
| [2H]C([2H])([2H])Oc1cnc(C(=O)Nc2ccc(F)c([C@@]3(C)N=C(N)S[C@H](C)[C@@H]3F)c2)cn1 [Compound I-111] | Yes |
| CC(F)(F)[C@H]1OC(N)=N[C@](C)(c2cc(NC(=O)c3ccc(C#N)cn3)ccc2F)[C@H]1F [Compound I-40] | No |
| COc1cnc(C(=O)Nc2ccc(F)c([C@@]3(C)N=C(N)O[C@H]([C@@H](C)F)[C@@H]3F)c2)cn1 [Compound I-71] | Yes |
| C[C@]1(c2cc(NC(=O)c3ccc(C#N)cn3)ccc2F)N=C(N)O[C@H](C(F)(F)C2CC2)[C@@H]1F [Compound I-81] | Yes |
| COc1ccc(C(=O)Nc2ccc(F)c([C@@]3(C)N=C(N)S[C@H](C)[C@@H]3F)c2)nn1 [Compound I-108] | No |
| C[C@]1(c2cc(NC(=O)c3ccc(F)cn3)ccc2F)N=C(N)SCC12CC(F)(F)C2 [Compound I-61] | Yes |
| C[C@H]1SC(N)=N[C@](C)(c2cccc(NC(=O)c3ccc(OCF)cn3)c2)[C@H]1F [Compound I-107] | No |
| COCC(F)(F)[C@H]1OC(N)=N[C@](C)(c2cc(NC(=O)c3ccc(C#N)cn3)ccc2F)[C@H]1F [Compound I-78] | Yes |
| C[C@H]1SC(N)=N[C@](C)(c2cc(NC(=O)c3ncc(OCC(F)(F)F)cn3)ccc2F)[C@H]1F [Compound I-53] | Yes |
| Cc1cc(C#N)cnc1C(=O)Nc1ccc(F)c([C@@]2(C)N=C(N)O[C@H](C3(F)CC3)[C@@H]2F)c1 [Compound I-99] | No |
| C[C@H]1SC(N)=N[C@](C)(c2cccc(NC(=O)c3cnc(OCF)cn3)c2)[C@H]1F [Compound I-104] | Yes |
| COCC(F)(F)[C@H]1OC(N)=N[C@](C)(c2cc(NC(=O)c3cnc(OC)cn3)ccc2F)[C@H]1F [Compound I-80] | No |
| C[C@]1(c2cc(NC(=O)c3ccc(C#N)cn3)ccc2F)N=C(N)SCC12CC(F)(F)C2 [Compound I-59] | Yes |
| C[C@H]1SC(N)=N[C@](C)(c2cc(NC(=O)c3cnc(OCC(F)F)cn3)ccc2F)[C@H]1F [Compound I-48] | Yes |
| C[C@H]1[C@@H](C(F)(F)F)OC(N)=N[C@]1(C)c1cc(NC(=O)c2cnc(OCF)cn2)ccc1F [Compound I-41] | Yes |
| COc1cnc(C(=O)Nc2ccc(F)c([C@@]3(C)N=C(N)O[C@H](C(F)F)[C@@H]3C)c2)cn1 [Compound I-86] | No |

* * *

Entries and their measured remaining % follow.
- Assay info: Metabolic stability test
- Type: in vitro ADME
- Setup conditions: human liver microsomes, 37° C., 30 minutes, NADPH

| Compound | remaining %, % |
| --- | --- |
| C[C@H]1[C@@H](C(F)F)OC(N)=N[C@]1(C)c1cc(NC(=O)c2ccc(C#N)cn2)ccc1F [Compound I-31] | 85 |
| C[C@H]1[C@H](C(F)(F)F)OC(N)=N[C@]1(C)c1cc(NC(=O)c2ccc(C#N)cn2)ccc1F [Compound I-29] | 98.2 |
| C[C@]1(c2cc(NC(=O)c3ccc(C#N)cn3)ccc2F)N=C(N)O[C@H](C2(F)CC2)[C@@H]1F [Compound I-96] | 101 |
| CC[C@H]1SC(N)=N[C@](C)(c2cc(NC(=O)c3ccc(C#N)cn3)ccc2F)[C@H]1F [Compound I-69] | 77.6 |
| C[C@H]1SC(N)=N[C@](C)(c2cc(NC(=O)c3coc(CF)n3)ccc2F)[C@H]1F [Compound I-49] | 95.4 |
| CC[C@H]1SC(N)=N[C@](C)(c2cc(NC(=O)c3ccc(F)cn3)ccc2F)[C@H]1F [Compound I-70] | 74.3 |
| CO[C@H]1[C@@H](C)SC(N)=N[C@]1(C)c1cc(NC(=O)c2ccc(C#N)cn2)ccc1F [Compound I-88] | 83.5 |
| Cc1cc(C#N)cnc1C(=O)Nc1ccc(F)c([C@@]2(C)N=C(N)S[C@H](C)[C@@H]2F)c1 [Compound I-52] | 60.3 |
| COc1cnc(C(=O)Nc2ccc(F)c([C@@]3(C)N=C(N)O[C@H](C(F)F)[C@@H]3C)c2)cn1 [Compound I-86] | 67.5 |
| COC[C@H]1SC(N)=N[C@](C)(c2cc(NC(=O)c3ccc(C#N)cn3)ccc2F)[C@H]1F [Compound I-92] | 81 |
| C[C@@H]1[C@@H](C(F)(F)F)OC(N)=N[C@]1(C)c1cc(NC(=O)c2ccc(C#N)cn2)ccc1F [Compound I-27] | 84.7 |
| CO[C@H]1[C@@H](CF)OC(N)=N[C@]1(C)c1cc(NC(=O)c2ncc(Cl)cc2Cl)ccc1F [Compound I-26] | 76 |
| CO[C@H]1[C@@H](CF)OC(N)=N[C@]1(C)c1cc(NC(=O)c2ccc(Cl)cn2)ccc1F [Compound I-23] | 86.6 |
| C[C@@]1(c2cc(NC(=O)c3ccc(C#N)cn3)ccc2F)C[C@@](C)(C(F)(F)F)OC(N)=N1 [Compound I-7] | 82 |
| COc1cnc(C(=O)Nc2ccc(F)c([C@@]3(C)N=C(N)O[C@H](C(F)(F)C4CC4)[C@@H]3F)c2)cn1 [Compound I-83] | 55.3 |
| C[C@]1(c2cc(NC(=O)c3ccc(C#N)cn3)ccc2F)N=C(N)O[C@H](C(F)(F)C2CC2)[C@@H]1F [Compound I-81] | 101 |
| Cc1nc(C(=O)Nc2ccc(F)c([C@@]3(C)N=C(N)O[C@H](C(F)(F)F)[C@@H]3C)c2)co1 [Compound I-32] | 94.6 |
| C[C@H]1SC(N)=N[C@](C)(c2nc(NC(=O)c3cnc(OCF)cn3)ccc2F)[C@H]1F [Compound I-3] | 81.4 |
| CC[C@H]1SC(N)=N[C@](C)(c2cc(NC(=O)c3cnc(OCF)cn3)ccc2F)[C@H]1F [Compound I-66] | 67 |
| Cc1cc(C#N)cnc1C(=O)Nc1ccc(F)c([C@@]2(C)N=C(N)O[C@H](C3(F)CC3)[C@@H]2F)c1 [Compound I-99] | 89.4 |
| C[C@]1(c2cc(NC(=O)c3ccc(C#N)cn3)ccc2F)N=C(N)SCC12CC(F)(F)C2 [Compound I-59] | 66.8 |
| C[C@H]1SC(N)=N[C@](C)(c2cc(NC(=O)c3ccc(OCC(F)(F)F)cn3)ccc2F)[C@H]1F [Compound I-54] | 91 |
| C[C@H]1SC(N)=N[C@](C)(c2cccc(NC(=O)c3cnc(C(F)F)cn3)c2)[C@H]1F [Compound I-106] | 84.1 |
| CO[C@H]1[C@@H](CF)OC(N)=N[C@]1(C)c1cc(NC(=O)c2ccc(F)cn2)ccc1F [Compound I-25] | 89.1 |
| CO[C@H]1[C@@H](CF)OC(N)=N[C@]1(C)c1cc(NC(=O)c2cnc(OCF)cn2)ccc1F [Compound I-24] | 95.5 |
| C[C@]1(c2cc(NC(=O)c3ccc(C#N)cn3)ccc2F)N=C(N)O[C@H](CF)[C@@H]1OCC(F)(F)F [Compound I-10] | 95.6 |
| C[C@]1(c2cc(NC(=O)c3cnc(OCF)cn3)ccc2F)N=C(N)OCC12CC(F)(F)C2 [Compound I-44] | 86.4 |
| C[C@]1(c2cc(NC(=O)c3ccc(F)cn3)ccc2F)N=C(N)OCC12CC(F)(F)C2 [Compound I-45] | 93.5 |
| C[C@H]1SC(N)=N[C@](C)(c2cccc(NC(=O)c3ccc(C#N)cn3)c2)[C@H]1F [Compound I-102] | 78.1 |
